# Assay target: Macaca fascicularis IL-36R extracellular domain expressed with a C-terminal myc-myc-hexahistidine tag (Macaca fascicularis)
# Protocol notes: SPR Biacore T200, mAb captured by anti-hFc, 25C, PBS-T pH 6.0
Measured parameter: log10 of 100 nM mfIL-36R-MMH Bound (RU) (log10 of the value in RU)

• H4H14728P (antibody, human IgG4 S228P, kappa, V domains shown) VH: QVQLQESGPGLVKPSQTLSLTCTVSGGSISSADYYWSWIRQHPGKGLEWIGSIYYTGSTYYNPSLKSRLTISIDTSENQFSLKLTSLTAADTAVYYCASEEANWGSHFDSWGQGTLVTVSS VL: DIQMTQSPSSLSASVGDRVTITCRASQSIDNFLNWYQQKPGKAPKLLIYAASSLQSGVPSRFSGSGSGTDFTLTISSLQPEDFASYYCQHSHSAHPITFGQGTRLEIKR = 1.83
• H4H14757P (antibody, human IgG4 S228P, kappa, V domains shown) VH: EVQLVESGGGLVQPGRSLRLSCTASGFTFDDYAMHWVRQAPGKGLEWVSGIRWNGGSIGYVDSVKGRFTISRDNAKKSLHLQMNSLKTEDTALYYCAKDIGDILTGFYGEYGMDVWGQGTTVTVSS VL: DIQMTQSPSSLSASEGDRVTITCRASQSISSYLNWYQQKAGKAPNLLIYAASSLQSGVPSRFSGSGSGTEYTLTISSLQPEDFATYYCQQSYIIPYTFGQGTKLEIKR = 0.00
• H4H14758P (antibody, human IgG4 S228P, kappa, V domains shown) VH: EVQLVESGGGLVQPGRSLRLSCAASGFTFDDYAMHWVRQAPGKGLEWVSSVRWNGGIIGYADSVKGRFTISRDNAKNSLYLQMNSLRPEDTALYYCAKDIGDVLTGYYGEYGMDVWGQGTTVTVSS VL: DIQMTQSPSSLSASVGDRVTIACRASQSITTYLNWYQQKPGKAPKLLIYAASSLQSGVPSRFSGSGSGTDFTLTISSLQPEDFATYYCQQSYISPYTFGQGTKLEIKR = 0.00
• H4H14731P (antibody, human IgG4 S228P, kappa, V domains shown) VH: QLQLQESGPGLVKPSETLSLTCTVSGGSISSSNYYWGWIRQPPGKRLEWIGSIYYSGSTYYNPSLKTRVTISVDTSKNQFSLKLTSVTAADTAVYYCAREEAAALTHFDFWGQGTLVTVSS VL: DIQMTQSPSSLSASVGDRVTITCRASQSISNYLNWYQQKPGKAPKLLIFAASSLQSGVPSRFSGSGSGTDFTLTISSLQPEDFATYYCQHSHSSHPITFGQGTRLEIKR = 1.36
• H4H14708P2 (antibody, human IgG4 S228P, kappa, V domains shown) VH: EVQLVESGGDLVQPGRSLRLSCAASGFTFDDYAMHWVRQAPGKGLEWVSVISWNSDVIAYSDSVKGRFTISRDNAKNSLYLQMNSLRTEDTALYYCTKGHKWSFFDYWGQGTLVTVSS VL: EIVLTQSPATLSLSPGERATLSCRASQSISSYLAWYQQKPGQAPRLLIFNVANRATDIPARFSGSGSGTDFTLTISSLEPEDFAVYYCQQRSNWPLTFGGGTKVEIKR = 1.67
• H4H14700P2 (antibody, human IgG4 S228P, kappa, V domains shown) VH: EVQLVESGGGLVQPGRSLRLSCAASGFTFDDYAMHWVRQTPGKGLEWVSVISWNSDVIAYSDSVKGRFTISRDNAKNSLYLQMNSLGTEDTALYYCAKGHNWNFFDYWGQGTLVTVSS VL: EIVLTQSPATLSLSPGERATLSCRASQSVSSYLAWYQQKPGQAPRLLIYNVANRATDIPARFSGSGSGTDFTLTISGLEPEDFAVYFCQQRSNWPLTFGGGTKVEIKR = 1.90
• H4H14709P (antibody, human IgG4 S228P, kappa, V domains shown) VH: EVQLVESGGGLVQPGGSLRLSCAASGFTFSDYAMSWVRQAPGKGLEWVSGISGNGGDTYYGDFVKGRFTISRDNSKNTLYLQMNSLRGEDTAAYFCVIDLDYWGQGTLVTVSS VL: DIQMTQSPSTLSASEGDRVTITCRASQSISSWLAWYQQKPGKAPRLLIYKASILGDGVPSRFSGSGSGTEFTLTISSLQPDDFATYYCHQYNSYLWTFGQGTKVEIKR = 1.68
